Tested on: SRBC
Experiment: Hemolysis of SRBC
Assay type: cell-based
measured_quantity: Hemolysis ED50 (concentration necessary to achieve 50% hemolysis of SRBC)

Solved entries (count: 5):
molecule	meas_value
CCN1c2c(O)cccc2C(=O)N(CC=C(C)CCCC(C)(CCCC(C)(C)OC)OC)c2cc(O)cc(O)c21 (stereo not drawn)	>64 µg/mL
CC(C)=CCCC1(C)OC1CC/C(C)=C/CN1C(=O)c2cccc(O)c2Nc2c(O)cc(O)cc21 (stereo not drawn)	35.0 µg/mL
CC(C)CCCC(C)CCCC(C)CCN1C(=O)c2cccc(O)c2N(C)c2c(O)cc(O)cc21 (stereo not drawn)	9.89 µg/mL
COc1cc(O)cc2c1Nc1c(O)cccc1C(=O)N2C/C=C(\C)CC/C=C(\C)CCC=C(C)C	>64 µg/mL
CC(C)=CCC/C(C)=C/CC/C(C)=C/CN1C(=O)c2cccc(O)c2Nc2c1cc(O)c(Br)c2O	15.1 µg/mL

Q: Tell me the measured Hemolysis ED50 (concentration necessary to achieve 50% hemolysis of SRBC) of CC(=O)Oc1cccc2c1Nc1c(OC(C)=O)cc(O)cc1N(CC=C(C)CCC=C(C)CCC=C(C)C)C2=O , please.
A: >64 µg/mL

Q: Tell me the measured Hemolysis ED50 (concentration necessary to achieve 50% hemolysis of SRBC) of CC(=O)Oc1cc(OC(C)=O)c2c(c1)N(CC=C(C)CCC=C(C)CCC=C(C)C)C(=O)c1cccc(OC(C)=O)c1N2 , please.
A: >64 µg/mL

Q: Tell me the measured Hemolysis ED50 (concentration necessary to achieve 50% hemolysis of SRBC) of CC(=O)NC(C)(CCC=C(C)C)CCC/C(C)=C/CN1C(=O)c2cccc(O)c2Nc2c(O)cc(O)cc21 (stereo not drawn) , please.
A: >64 µg/mL

Q: Tell me the measured Hemolysis ED50 (concentration necessary to achieve 50% hemolysis of SRBC) of COC(C)(CCC=C(C)C)CCC/C(C)=C/CN1C(=O)c2cccc(O)c2N(C)c2c(O)cc(O)cc21 (stereo not drawn) , please.
A: >64 µg/mL

Q: Tell me the measured Hemolysis ED50 (concentration necessary to achieve 50% hemolysis of SRBC) of CCCCCCN1c2c(O)cccc2C(=O)N(C/C=C(\C)CC/C=C(\C)CCC=C(C)C)c2cc(O)cc(O)c21 , please.
A: >64 µg/mL

Q: Tell me the measured Hemolysis ED50 (concentration necessary to achieve 50% hemolysis of SRBC) of CC(C)=CCC/C(C)=C/CC/C(C)=C/CN1C(=O)c2cccc(O)c2N(C)c2c(O)cc(O)cc21 , please.
A: 5.12 µg/mL

Q: Tell me the measured Hemolysis ED50 (concentration necessary to achieve 50% hemolysis of SRBC) of C/C(=C\CN1C(=O)c2cccc(O)c2Nc2c(O)cc(O)cc21)CC/C=C(\C)CCC1OC1(C)C (stereo not drawn) , please.
A: >64 µg/mL
